Test: Permeability in a Caco-2 assay
Type: in vitro ADME
Experimental Setup: human, Caco-2, Assay Conc. 10 μM, without verapamil; read-out: Mean A-B % Recovery
Property: recovery at 10 μM (%)
Numeric only. Scale: %

Compound: CC(=O)CC(c1ccccc1)c1c(O)c2ccccc2oc1=O (centres unmarked) [Warfarin, reference compound]
Property: recovery at 10 μM
Val: 93

For the next question, use this compound.
**Q:** Name the recorded recovery at 10 μM for CNC(=C[N+](=O)[O-])NCCSCc1ccc(CN(C)C)o1 [Ranitidine, reference compound] .
**A:** 87.1

---

Each record here notes measured recovery at 10 μM.
Test: Permeability in a Caco-2 assay
Format: in vitro ADME
Experimental Setup: human, Caco-2, Assay Conc. 10 μM, without verapamil; read-out: Mean B-A % Recovery
Method: Permeability of the S62 and S71 peptides were assessed in a Caco-2 assay using methanol. Permeability Ranking: lower is <1×10−6 cm/s; higher is >1×10-6 cm/s.
Ends that are not written are not given here.
Numbers only here, please. The scale is %.

**Q:** For GAVVWGVTAVKK [S62, GAVVWGVTAVKK] , what is its reported recovery at 10 μM?
**A:** 92.5

**Q:** Now this one: RAVVTGVTAVAE [S71, RAVVTGVTAVAE]
**A:** 74.7

---

Test: Permeability in a Caco-2 assay
Type: in vitro ADME
Experimental Setup: human, Caco-2, Assay Conc. 10 μM, without verapamil; read-out: Mean A-B % Recovery
Ends that are not written are not given here.
Property: recovery at 10 μM (%)
Please respond with the number in % and leave the unit unwritten.

Chain Sequence: RAVVTGVTAVAE [S71, RAVVTGVTAVAE]
recovery at 10 μM [%]: 91.4

Please turn your attention to the following entry.
**Q:** Which recovery at 10 μM value is on record for GAVVWGVTAVKK [S62, GAVVWGVTAVKK] ?
**A:** 70.1

---

Test: Permeability in a Caco-2 assay
Format: in vitro ADME
Experimental Setup: human, Caco-2, with Verapamil 25 uM, Assay Conc. 10 μM, with Verapamil 25 uM; read-out: Mean A-B % Recovery
Ends that are not written are not given here.
Measured recovery at 10 μM, listed per entry.
# value in %; strip the unit string

Chain Sequence: GAVVWGVTAVKK [S62, GAVVWGVTAVKK]
Val: 59.7

Below: the item to evaluate.
**Q:** Reported recovery at 10 μM for RAVVTGVTAVAE [S71, RAVVTGVTAVAE] : what is it?
**A:** 80.7

---

Test: Permeability in a Caco-2 assay
Type: in vitro ADME
Experimental Setup: human, Caco-2, with Verapamil 25 uM, Assay Conc. 10 μM, with Verapamil 25 uM; read-out: Mean B-A % Recovery
Ends that are not written are not given here.
Reported recovery at 10 μM values are given for each entry in this list.
Number in %, nothing else.

Chain Sequence: GAVVWGVTAVKK [S62, GAVVWGVTAVKK]
Unit Abbrev: %
recovery at 10 μM: 91.3

**Q:** Please report the recorded recovery at 10 μM for RAVVTGVTAVAE [S71, RAVVTGVTAVAE] .
**A:** 92.7

Cited source: patent US20240025953A1
